B1: library; numbered along this chain (parent)
chain: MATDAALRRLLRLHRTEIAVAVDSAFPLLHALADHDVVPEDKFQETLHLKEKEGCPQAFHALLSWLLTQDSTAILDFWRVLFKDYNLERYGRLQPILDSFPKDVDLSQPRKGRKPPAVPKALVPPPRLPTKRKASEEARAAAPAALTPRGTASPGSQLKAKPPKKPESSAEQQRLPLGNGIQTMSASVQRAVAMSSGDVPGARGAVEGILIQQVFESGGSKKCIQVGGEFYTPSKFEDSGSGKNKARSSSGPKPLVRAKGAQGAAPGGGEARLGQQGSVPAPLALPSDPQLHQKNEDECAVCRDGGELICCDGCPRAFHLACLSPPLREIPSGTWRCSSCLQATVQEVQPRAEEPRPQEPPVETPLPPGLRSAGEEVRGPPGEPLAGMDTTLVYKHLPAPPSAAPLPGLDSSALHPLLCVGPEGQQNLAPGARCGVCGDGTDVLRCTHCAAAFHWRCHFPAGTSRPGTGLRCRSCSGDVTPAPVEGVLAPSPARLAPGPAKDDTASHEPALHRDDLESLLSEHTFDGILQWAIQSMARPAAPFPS

# Variants of: B1
# Measurement description: AIRE transcriptional activation functional score (insulin promoter-GFP; nonsense median 0, synonymous median 1) (normalised score); higher = higher AIRE activity (more reporter activation)
# Test settings: with insulin promoter-GFP reporter in HEK293
Assay metric: AIRE transcriptional activation functional score
Please give the numeric answer without any surrounding text.

Provide one value: measured AIRE transcriptional activation functional score of L62V
0.0204

Provide one value: measured AIRE transcriptional activation functional score of A489L
1.06

Provide one value: measured AIRE transcriptional activation functional score of G421E
1.65

Provide one value: measured AIRE transcriptional activation functional score of Q225K
1.23

Provide one value: measured AIRE transcriptional activation functional score of G477C
0.926

Provide one value: measured AIRE transcriptional activation functional score of A505V
0.997
